- System: ACHN renal
- METHOD: NCI-60 one-dose screen, 48 h (100 = growth as untreated, 0 = no growth, -100 = all killed)
- MEASUREMENT_CONTEXT: 10 µM
The panel holds about 83,000 compounds, 20% with a hit somewhere; the sample as a whole holds those more often.
Reported growth values for the following molecules.
ASSAY_READOUT: growth (%)

molecule="N#CC1=C(N)Oc2cc(N)ccc2C1c1cccnc1 (stereo not given)" measurement_target="ACHN renal" test_result=96.7
molecule=CC(C)N(CCOc1cccc(-c2nc3sccn3c2-c2ccnc(S(C)(=O)=O)n2)c1)C(C)C measurement_target="ACHN renal" test_result=93.7
molecule=CC1=NN(C(=O)c2nn(-c3ccc(Cl)cc3)cc2O)C(=O)C1 measurement_target="ACHN renal" test_result=42
molecule=CCN(CC)CCOc1ccc2c(c1O)C(=O)c1ccccc1C2=O measurement_target="ACHN renal" test_result=56.9
molecule="CC1C(=NC(=O)c2cnccn2)C(C)C(c2ccc(Cl)cc2)NC1c1ccncc1 (stereo not given)" measurement_target="ACHN renal" test_result=91.5
